Tested on: DR5
STUDY CONDITIONS: read-out: PADRE Class II Binding Affinities DR5; Table VIII A
QUANTITY NAME: IC50 (nM)
One number for each entry, in nM.

Look over these answered cases.
[
  {
    "COMPOUND": "CC(C)C[C@H](NC(=O)[C@@H](NC(=O)[C@H](C)NC(=O)[C@H](C)NC(=O)[C@H](C)NC(=O)[C@H](C)NC(=O)[C@H](CC1CCCCC1)NC(=O)[C@H](C)NC(=O)[C@@H](C)N)[C@@H](C)O)C(=O)N[C@@H](CCC(=O)O)C(=O)N[C@@H](C)C(=O)N[C@@H](C)C(=O)N[C@H](C)C(N)=O [Peptide 906.35]",
    "UNITS": "nM",
    "IC50": 10.5
  },
  {
    "COMPOUND": "C[C@H](NC(=O)[C@H](C)NC(=O)[C@H](C)NC(=O)[C@H](CC1CCCCC1)NC(=O)[C@H](C)NC(=O)[C@@H](C)N)C(=O)N[C@@H](C)C(=O)N[C@H](C(=O)N[C@@H](Cc1ccccc1)C(=O)N[C@@H](CCCCN)C(=O)N[C@@H](C)C(=O)N[C@@H](C)C(=O)N[C@H](C)C(N)=O)[C@@H](C)O [Peptide 906.33]",
    "UNITS": "nM",
    "IC50": 2.4
  }
]

**Query** Data request, read-out IC50, for CC(C)C[C@H](NC(=O)[C@@H](NC(=O)[C@H](C)NC(=O)[C@H](C)NC(=O)[C@H](C)NC(=O)[C@H](C)NC(=O)[C@H](CC1CCCCC1)NC(=O)[C@H](C)NC(=O)[C@@H](C)N)[C@@H](C)O)C(=O)N[C@@H](CCC(N)=O)C(=O)N[C@@H](C)C(=O)N[C@@H](C)C(=O)N[C@H](C)C(N)=O [Peptide 906.36]
**Result** 8.3

---

Test system: DR5
STUDY CONDITIONS: read-out: PADRE Class II Binding Affinities DR5; Table VIII A
Non-standard residues stand in square brackets, D forms with d. Residues, ends and D or L forms follow the SMILES beside them. Cha = N[C@@H](CC1CCCCC1)C(=O)O
QUANTITY NAME: pIC50
One number for each entry, as −log10 of the molar value.

Look over these answered cases.
[
  {
    "MOLECULE": "CC(C)C[C@H](NC(=O)[C@@H](NC(=O)[C@H](Cc1ccccc1)NC(=O)[C@H](C)NC(=O)[C@H](C)NC(=O)[C@H](C)NC(=O)[C@H](CC1CCCCC1)NC(=O)[C@H](C)NC(=O)[C@@H](C)N)[C@@H](C)O)C(=O)N[C@@H](CCCCN)C(=O)N[C@@H](C)C(=O)N[C@@H](C)C(=O)N[C@H](C)C(N)=O [Peptide 906.27]",
    "QUANTITY NAME": "pIC50",
    "OBSERVED": 8.59
  },
  {
    "MOLECULE": "CC(C)C[C@H](NC(=O)[C@@H](NC(=O)[C@H](C)NC(=O)[C@@H](NC(=O)[C@H](C)NC(=O)[C@H](C)NC(=O)[C@H](CC1CCCCC1)NC(=O)[C@H](C)NC(=O)[C@@H](C)N)C(C)C)[C@@H](C)O)C(=O)N[C@@H](CCCCN)C(=O)N[C@@H](C)C(=O)N[C@@H](C)C(=O)N[C@H](C)C(N)=O [Peptide 906.21] (H-[dA]A[Cha]AAVATLKAA[dA]-NH2; N-terminus and C-terminus assumed)",
    "QUANTITY NAME": "pIC50",
    "OBSERVED": 8.49
  },
  {
    "MOLECULE": "CC(C)C[C@H](NC(=O)[C@@H](NC(=O)[C@H](C)NC(=O)[C@H](C)NC(=O)[C@H](C)NC(=O)[C@H](C)NC(=O)[C@H](CC1CCCCC1)NC(=O)[C@H](C)NC(=O)[C@@H](C)N)[C@@H](C)O)C(=O)N[C@@H](CCCCN)C(=O)N[C@@H](C)C(=O)N[C@@H](CCC(N)=O)C(=O)N[C@H](C)C(N)=O [Peptide 906.48] (H-[dA]A[Cha]AAAATLKAQ[dA]-NH2; N-terminus and C-terminus assumed)",
    "QUANTITY NAME": "pIC50",
    "OBSERVED": 7.70
  }
]

Record pIC50 per entry; entries follow.
1. CC(C)C[C@H](NC(=O)[C@@H](NC(=O)[C@H](C)NC(=O)[C@H](C)NC(=O)[C@H](C)NC(=O)[C@H](C)NC(=O)[C@H](CC1CCCCC1)NC(=O)[C@H](C)NC(=O)[C@@H](C)N)[C@@H](C)O)C(=O)N[C@@H](CCCCN)C(=O)N[C@H](C(=O)N[C@@H](C)C(=O)N[C@H](C)C(N)=O)C(C)C [Peptide 906.43] (H-[dA]A[Cha]AAAATLKVA[dA]-NH2; N-terminus and C-terminus assumed)
2. CC(C)C[C@H](NC(=O)[C@@H](NC(=O)[C@H](C)NC(=O)[C@H](C)NC(=O)[C@H](C)NC(=O)[C@H](C)NC(=O)[C@H](CC1CCCCC1)NC(=O)[C@H](C)NC(=O)[C@@H](C)N)[C@@H](C)O)C(=O)N[C@@H](Cc1ccccc1)C(=O)N[C@@H](C)C(=O)N[C@@H](C)C(=O)N[C@H](C)C(N)=O [Peptide 906.38]
3. CC(C)C[C@H](NC(=O)[C@@H](NC(=O)[C@H](C)NC(=O)[C@H](C)NC(=O)[C@H](C)NC(=O)[C@H](C)NC(=O)[C@H](CC1CCCCC1)NC(=O)[C@H](C)NC(=O)[C@@H](C)N)[C@@H](C)O)C(=O)N[C@@H](CCCCN)C(=O)N[C@@H](C)C(=O)N[C@@H](CCC(=O)O)C(=O)N[C@H](C)C(N)=O [Peptide 906.47] (H-[dA]A[Cha]AAAATLKAE[dA]-NH2; N-terminus and C-terminus assumed)

**Result**
1. 8.02
2. 7.72
3. 7.59
